Target: Ubiquitin-activating enzyme e1, putative (Leishmania donovani (strain BPK282A1)) (UniProt E9BSI1)
Sequence (whole entry): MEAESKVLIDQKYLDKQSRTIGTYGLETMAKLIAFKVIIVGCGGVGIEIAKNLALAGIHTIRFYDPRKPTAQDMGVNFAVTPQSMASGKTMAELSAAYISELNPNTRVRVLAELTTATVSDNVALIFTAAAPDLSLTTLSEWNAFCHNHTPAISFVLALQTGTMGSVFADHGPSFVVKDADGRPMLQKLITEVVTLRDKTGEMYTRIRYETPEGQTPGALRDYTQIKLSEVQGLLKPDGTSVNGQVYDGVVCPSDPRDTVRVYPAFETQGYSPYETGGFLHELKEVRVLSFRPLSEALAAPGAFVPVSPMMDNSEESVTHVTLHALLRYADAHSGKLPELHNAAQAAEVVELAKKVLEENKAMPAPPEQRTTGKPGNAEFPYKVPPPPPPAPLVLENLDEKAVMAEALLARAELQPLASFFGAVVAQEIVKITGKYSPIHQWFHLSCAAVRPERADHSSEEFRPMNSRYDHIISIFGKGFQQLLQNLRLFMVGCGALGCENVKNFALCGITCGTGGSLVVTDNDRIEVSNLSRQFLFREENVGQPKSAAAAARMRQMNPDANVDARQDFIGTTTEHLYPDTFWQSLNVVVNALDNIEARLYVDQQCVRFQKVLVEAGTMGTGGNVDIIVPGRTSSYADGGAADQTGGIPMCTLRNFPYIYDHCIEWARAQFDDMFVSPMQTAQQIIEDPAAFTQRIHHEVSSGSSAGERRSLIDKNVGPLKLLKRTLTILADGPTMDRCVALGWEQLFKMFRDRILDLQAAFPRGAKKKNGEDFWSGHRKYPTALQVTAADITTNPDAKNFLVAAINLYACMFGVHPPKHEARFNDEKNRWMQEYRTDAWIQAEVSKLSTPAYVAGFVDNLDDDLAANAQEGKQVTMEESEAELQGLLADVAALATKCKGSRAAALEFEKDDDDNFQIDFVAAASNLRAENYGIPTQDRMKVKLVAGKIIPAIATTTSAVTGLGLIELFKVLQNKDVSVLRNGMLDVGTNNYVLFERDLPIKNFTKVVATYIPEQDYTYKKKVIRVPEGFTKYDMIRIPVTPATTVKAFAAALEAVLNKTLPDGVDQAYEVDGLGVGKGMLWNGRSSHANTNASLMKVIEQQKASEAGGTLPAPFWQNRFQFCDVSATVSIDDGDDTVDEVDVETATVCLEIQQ
Test: Leishmania donovani Ubiquitin Activating Enzyme (LdE1)
Assay type: functional
Set-up: scale not given: direction of the effect not stated beside the values
Conditions: 30 µM
Potency and affinity values are given separately.
parameter: Percent Effect (%)

>>> df
                                   compound  value_measured
0         O=C(NCCCN1CCCC1=O)Nc1ccc(Br)cc1Cl              -4
1  CCCN1CCN(C(=O)C(C)n2cc(Br)cn2)CC1 (stereo not given)            15.6
2              CN(C)c1cncc(C2CCN(CCO)CC2)n1            12.2
3     COc1c(CNCc2ccc(N(C)C)nc2)c(C(C)C)nn1C            13.2
4  CCOc1nnc(CNC2CCCN(c3ccc(C)nn3)C2)s1 (stereo not given)            13.5
